- experimentalSystem: T1, Human SERF1a (small EDRK-rich factor 1a), short form (human, UniProt O75920-2 1-62)
- T1 construct: Small EDRK-rich factor 1a, human, short form of 62 residues (the long form has 110); full-length cDNA amplified by PCR from GenBank BC021174; 15N-labelled (M9 minimal medium) for the NMR titration; also called rSERF1a; recombinant SERF1a; source: E. coli BL21(DE3), purified (Ni-Sepharose, thrombin cleavage, Mono-S); not shown: His-tag, N-terminal, cleaved
- T1 sequence (looked up): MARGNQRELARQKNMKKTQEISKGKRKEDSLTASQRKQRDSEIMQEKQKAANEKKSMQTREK
- testMethodNotes: ITC; 250 μM SERF1a in syringe injected into 50 μM Htt-3 or NT17 in the cell; 10 mM PB pH 7.4, 26 °C, 1.5 μl injections
- details: both partners purified
measurementName: Kd (nM)
Answers are plain numbers, in nM.

Problem: Which Kd value belongs to MATLEKLMKAFESLKSF (peptide, UniProt P42858 1-17, looked up, N-terminal 17 amino acids of huntingtin; source: synthetic peptide (peptide synthesis core, Genomics Research Center, Academia Sinica)) [NT17 peptide (N-terminal 17 amino acids of Htt)] ?
Result: 72.5
